Catalogue of molecules with associated viability
assay overview: growth suppression of PTEN-deleted HCT116, pilot screen, cell-based, HCT116 clonal line, CellTiter-Glo (AID 824);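 note: 0% = 20 µM Hyamine control and 100% = vehicle cell control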
experimental parameters: 60 h, at 10 µM, active compounds read low
Results filed as inconclusive are left out.
Return type: number; implicit unit %.

Below, each entry is followed by its recorded viability result.
COCc1cc(CN2CCCC2)c(O)c2ncccc12 ... 11.3
CCN1C(=O)c2ccccc2S(=O)c2ccc(C(=O)N3CCN(C(=O)c4ccco4)CC3)cc21 (stereo unspecified) ... 92.5
CCOC(=O)C1=C(O)CSC1=Nc1ccc(Cl)cc1 ... 99.8
CCCCC(=O)Nc1ncc2c(n1)CC(C)(C)CC2=O ... 98.2
C1=C(N2CCOCC2)/C(=C/c2nc3ccccc3[nH]2)CC1 ... 82.1
CCOC(=O)c1cc(-c2nnc(-c3ccc(Cl)cc3)o2)c(C)nc1C ... 93.6

Q: Given the molecule CN(C)c1ccc(C(=O)Nc2nc3c(s2)CCCC3)cc1 , what is its reported viability?
Ans: 72.4

Q: Please answer likewise for Cc1ccc(-c2ccc(CCC(=O)O)n2CC(=O)O)cc1
Ans: 107

Q: Please answer likewise for Brc1cccc(-c2nnc3sc(CNC4CCCC4)cn23)c1
Ans: 89.6

Q: Please answer likewise for CCOC(=O)CSc1nc2c(c(=O)n1-c1ccc(OC)cc1)SCC2
Ans: 98.6

Q: Please answer likewise for CC(=O)C1=C(O)C(=O)N(CC(=O)O)C1c1ccccc1Cl (stereo unspecified)
Ans: 104

====

Catalogue of compounds with associated viability
assay overview: growth suppression of PTEN-deleted HCT116, pilot screen, cell-based, HCT116 clonal line, CellTiter-Glo (AID 824);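 note: 0% = 20 µM Hyamine control and 100% = vehicle cell control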
experimental parameters: 60 h, at 10 µM, active compounds read low
Records with an inconclusive call do not appear.
Return type: number; implicit unit %.

Below, each entry is followed by its recorded viability result.
COC(=O)C1CCN(C(=O)c2ccc(Cl)c(S(=O)(=O)NCc3cccnc3)c2)CC1 ... 102
COC(=O)C(CCSC)NC(=O)Cn1ncc2c(=O)oc3ccc(C)cc3c21 (stereo unspecified) ... 91.3
Cc1ccc(-c2nc3ncccc3o2)cc1NC(=O)Cc1ccc(Cl)cc1 ... 82.9
Brc1cnc(N2CCCC2)nc1N1CCCCC1 ... 84.4
Cc1nc2ccccn2c1/C(O)=C1\C(=O)C(=O)N(CCCN(C)C)C1c1ccc(Cl)cc1 (stereo unspecified) ... 95.9
CCCc1ncc(C(O)c2cccc(OC)c2OC)n1C (stereo unspecified) ... 94.4
CCc1nccn1S(=O)(=O)c1ccc(OC)c(OC)c1 ... 93.3
COC(=O)c1cn(NC(=O)CC2CCCCC2)c(=O)c2ccccc12 ... 91.7

Q: Given the compound Cc1c(C(=O)NCc2cccnc2)sc2nc(-c3ccccc3)cn12 , what is its reported viability?
Ans: 89.5

Q: Please answer likewise for Cc1cc(C)c(S(=O)(=O)Nc2nnc(C)s2)c(C)c1
Ans: 99.3

Q: Please answer likewise for Cc1ccc(CNC(=O)CS(=O)Cc2nc(-c3cccs3)oc2C)cc1 (stereo unspecified)
Ans: 92.7

====

assay overview: RAM signaling pathway blockade in yeast – S. cerevisiae, Pdr1DBD-CYC8 efflux-inhibited sensitized strain, primary screen (AID 1298);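 note: 0% = DMSO untreated cells without growth and 100% = 10 µM 1-NA-PP1 full growth; higher means more yeast growth rescued from 5-FOA killing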
experimental parameters: S. cerevisiae cbk1-as DSE1-URA3 strain, 5-FOA growth OD615, 2 d; at 50 µM; active compounds read high
measurement label: RAM network inhibition (%)
Return type: number; implicit unit %.

CCc1c(C)sc(NC(=O)c2cccs2)c1C(=O)OC(C)C ... 5.72

Q: Given the molecule Cc1onc(-c2ccccc2Cl)c1C(=O)Nc1c(C)n(C)n(-c2ccccc2)c1=O , what is its reported RAM network inhibition?
Ans: 3.34

Q: Please answer likewise for COc1cc2[nH]c(=O)n(CCCCCC(=O)NCCCN3CCOCC3)c(=O)c2cc1OC
Ans: -0.68

Q: Please answer likewise for COC(=O)CSc1nc2ccccc2o1
Ans: 1.45

Q: Please answer likewise for CCOC(=O)N1CCN(C(=O)CSc2nc3c([nH]c4ccccc43)c(=O)n2C)CC1
Ans: 3.41

Q: Please answer likewise for Cc1cc(C(=O)Nc2ccc3c(c2)OCCO3)co1
Ans: -0.41

Q: Please answer likewise for CCC(=O)Nc1nc2ccccc2n1CCN1CCOCC1
Ans: 5.41

Q: Please answer likewise for CCOc1cccc(=O)c2c(C)n(Cc3ccco3)c(C)c12
Ans: -0.46

Q: Please answer likewise for COc1ccc(C)cc1NC(=O)CN(c1ccccc1F)S(C)(=O)=O
Ans: 0.32

Q: Please answer likewise for Cn1c(Cn2c(=O)sc3ccccc32)nnc1SCC(=O)Nc1ccc2c(c1)OCO2
Ans: 3.46

Q: Please answer likewise for CCOC(=O)c1nc2ccccc2s1
Ans: 1.61

Q: Please answer likewise for CC12CCC(C(=O)N3CCCc4ccccc43)(CC1=O)C2(C)C (stereo not drawn)
Ans: 0.93

Q: Please answer likewise for O=C(CCNS(=O)(=O)c1cccc2nsnc12)NC1CCN(Cc2ccccc2)CC1
Ans: 5.02

Q: Please answer likewise for CC1Oc2ccccc2C=C1C1/C(=C(/O)c2ccccc2)C(=O)C(=O)N1CCCN(C)C (stereo not drawn)
Ans: 0.77

Q: Please answer likewise for COc1cc(C)c(N(C(C)=O)c2ccccc2)c(C)c1
Ans: 5.22

Q: Please answer likewise for CCn1c(N2CCC(C)CC2)nc2c1c(=O)n(C)c(=O)n2C
Ans: 0.06

Q: Please answer likewise for Cn1c(=O)c2c(nc(SCCN3CCOCC3)n2Cc2ccc(Cl)cc2)n(C)c1=O
Ans: -0.47

Q: Please answer likewise for Cc1cc(N2CCN(C(=O)c3ccco3)CC2)n2nc(C)nc2n1
Ans: -0.63

====

Catalogue of compounds with associated inhibition
assay overview: inhibitors of the yeast RAM network, pilot screen, dse1pr::URA3 reporter, 5-FOA selection (AID 869);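 note: 0% = DMSO wells with no growth and 100% = 10 µM 1-NA-PP1 with full growth; RAM network block rescues cells from 5-FOA so hits raise OD615 growth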
experimental parameters: S. cerevisiae dse1pr::URA3 5-FOA growth, OD615, 2 d; at 10 µM; active compounds read high; strain carries analog-sensitive mutant Cbk1 kinase
Calls of active or inactive are those of the source.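 How the source made its calls: active means inhibition over a set limit, the all-compound mean plus 3 SD, in both replicate runs; inconclusive means over that limit in just one replicate run; inactive means at or under that limit in both runs.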

Nc1nc(N2CCOCC2)nc(N(c2ccccc2)c2ccccc2)n1 ... 1.93% (inactive)
COc1ccc(C2NC(=O)c3n[nH]c(C)c32)c(OC)c1 (configuration not stated) ... 2.85% (inactive)

Q: Given the compound Cn1c(Cn2c(=O)sc3ccccc32)nnc1SCC(=O)NC1CCCC1 , what is its reported inhibition?
Ans: 0% (inactive)

Q: Please answer likewise for CCC/C(O)=C1\C(=O)CC(C)(C)CC1=Nc1ccccc1OC
Ans: 3.95% (inactive)

====

assay overview: inhibitors of the yeast RAM network, pilot screen, dse1pr::URA3 reporter, 5-FOA selection (AID 869);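 note: 0% = DMSO wells with no growth and 100% = 10 µM 1-NA-PP1 with full growth; RAM network block rescues cells from 5-FOA so hits raise OD615 growth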
experimental parameters: S. cerevisiae dse1pr::URA3 5-FOA growth, OD615, 2 d; at 10 µM; active compounds read high; strain carries analog-sensitive mutant Cbk1 kinase
Catalogue of compounds with associated inhibition
Return type: number; implicit unit %.

Below, each entry is followed by its recorded inhibition result.
Brc1ccc(-c2nnc(-c3ccccc3Br)o2)cc1 ... 2.09
CCN(CC)S(=O)(=O)c1ccc(-c2nnc3sc4cccc(C)c4n23)cc1 ... 2
COc1cccc(-c2nnc(SCC(=O)N3CC(C)CC(C)C3)o2)c1 (configuration not stated) ... 0.535

Q: Given the compound O=C(NC1CCN(C(=O)N2c3ccccc3Sc3ccccc32)CC1)c1ccco1 , what is its reported inhibition?
Ans: -0.48

Q: Please answer likewise for CCn1c(N)nc2c1c(=O)n(C)c(=O)n2C
Ans: 0.32

Q: Please answer likewise for CCN(CC)S(=O)(=O)c1ccc(-c2nnco2)cc1
Ans: 3.09

Q: Please answer likewise for COc1c(Cl)ccc(Cl)c1C(=O)OCC(=O)O
Ans: 1.39

Q: Please answer likewise for O=C(c1ccccc1NS(=O)(=O)c1cccs1)N1CCCC1
Ans: 1.84

====

Catalogue of compounds with associated viability
assay overview: growth suppression of PTEN-deleted HCT116, pilot screen, cell-based, HCT116 clonal line, CellTiter-Glo (AID 824);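 note: 0% = 20 µM Hyamine control and 100% = vehicle cell control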
experimental parameters: 60 h, at 10 µM, active compounds read low
Results filed as inconclusive are left out.
Return type: number; implicit unit %.

O=C1CC(c2ccccc2)C(C(=O)Nc2ccccc2F)N1 (stereo unspecified) ... 99.3
O=C(O)CSC1c2ccccc2C(=O)N1Cc1ccccc1 (stereo unspecified) ... 93.7
Cc1sc2ncnc(NCCCO)c2c1C ... 90.5
CCCSC1=C(C#N)C(c2ccc(O)c(OC)c2)CC(=O)N1 (stereo unspecified) ... 101
O=C1CN(C(=O)COC(=O)C2CC(=O)N(Cc3ccco3)C2)c2ccccc2N1 (stereo unspecified) ... 104

Q: Given the compound CS(=O)(=O)N(CC(=O)NCc1ccco1)c1ccc(Cl)c(C(F)(F)F)c1 , what is its reported viability?
Ans: 88.2

====

Catalogue of compounds with associated RAM network inhibition
assay overview: RAM signaling pathway blockade in yeast – S. cerevisiae, Pdr1DBD-CYC8 efflux-inhibited sensitized strain, primary screen (AID 1298);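 note: 0% = DMSO untreated cells without growth and 100% = 10 µM 1-NA-PP1 full growth; higher means more yeast growth rescued from 5-FOA killing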
experimental parameters: S. cerevisiae cbk1-as DSE1-URA3 strain, 5-FOA growth OD615, 2 d; at 50 µM; active compounds read high
Return type: number; implicit unit %.

Below, each entry is followed by its recorded RAM network inhibition result.
CCOCCCn1cnc2c([nH]c3cc(OC)ccc32)c1=O ... 5.51
COc1ccc(C2N3CC4(C)CN2CC(C)(C3)C4O)cc1 (configuration not stated) ... -0.16
CCS(=O)(=O)n1nc(-c2ccccc2)cc1N ... 1.53
O=C(NCCCN1CCCC1=O)c1ccccc1NS(=O)(=O)c1ccc(F)cc1 ... 5.37
O=C(NCCN1CCN(C(=O)Nc2ccccc2)CC1)Nc1ccccc1 ... 3
CC(C)(C)NC(=O)C1CCCN(S(=O)(=O)c2cccc3cccnc23)C1 (configuration not stated) ... 0.52
CN(C)c1nc(N)nc(-c2ccco2)n1 ... 0.21
C=CCNC(=O)c1c(Cl)cccc1Cl ... 3.89

Q: Given the compound Cc1onc(-c2ccccc2Cl)c1C(=O)NCCN1Cc2ccccc2C1=O , what is its reported RAM network inhibition?
Ans: 0.31

Q: Please answer likewise for O=C(CSc1nnc2scc(-c3ccccc3)n12)c1ccc2c(c1)OCCO2
Ans: 7.73

Q: Please answer likewise for C=CCc1ccccc1OCC(O)CN1CCN(c2ccccc2OC)CC1 (configuration not stated)
Ans: 4.75

Q: Please answer likewise for C=CCn1cnc2scc(-c3ccccc3)c2c1=O
Ans: 0.21
